Target: c-Met expressed on the surface of human A549 lung carcinoma cells (human, UniProt P08581 25-1390)
Sequence (P08581 25-1390): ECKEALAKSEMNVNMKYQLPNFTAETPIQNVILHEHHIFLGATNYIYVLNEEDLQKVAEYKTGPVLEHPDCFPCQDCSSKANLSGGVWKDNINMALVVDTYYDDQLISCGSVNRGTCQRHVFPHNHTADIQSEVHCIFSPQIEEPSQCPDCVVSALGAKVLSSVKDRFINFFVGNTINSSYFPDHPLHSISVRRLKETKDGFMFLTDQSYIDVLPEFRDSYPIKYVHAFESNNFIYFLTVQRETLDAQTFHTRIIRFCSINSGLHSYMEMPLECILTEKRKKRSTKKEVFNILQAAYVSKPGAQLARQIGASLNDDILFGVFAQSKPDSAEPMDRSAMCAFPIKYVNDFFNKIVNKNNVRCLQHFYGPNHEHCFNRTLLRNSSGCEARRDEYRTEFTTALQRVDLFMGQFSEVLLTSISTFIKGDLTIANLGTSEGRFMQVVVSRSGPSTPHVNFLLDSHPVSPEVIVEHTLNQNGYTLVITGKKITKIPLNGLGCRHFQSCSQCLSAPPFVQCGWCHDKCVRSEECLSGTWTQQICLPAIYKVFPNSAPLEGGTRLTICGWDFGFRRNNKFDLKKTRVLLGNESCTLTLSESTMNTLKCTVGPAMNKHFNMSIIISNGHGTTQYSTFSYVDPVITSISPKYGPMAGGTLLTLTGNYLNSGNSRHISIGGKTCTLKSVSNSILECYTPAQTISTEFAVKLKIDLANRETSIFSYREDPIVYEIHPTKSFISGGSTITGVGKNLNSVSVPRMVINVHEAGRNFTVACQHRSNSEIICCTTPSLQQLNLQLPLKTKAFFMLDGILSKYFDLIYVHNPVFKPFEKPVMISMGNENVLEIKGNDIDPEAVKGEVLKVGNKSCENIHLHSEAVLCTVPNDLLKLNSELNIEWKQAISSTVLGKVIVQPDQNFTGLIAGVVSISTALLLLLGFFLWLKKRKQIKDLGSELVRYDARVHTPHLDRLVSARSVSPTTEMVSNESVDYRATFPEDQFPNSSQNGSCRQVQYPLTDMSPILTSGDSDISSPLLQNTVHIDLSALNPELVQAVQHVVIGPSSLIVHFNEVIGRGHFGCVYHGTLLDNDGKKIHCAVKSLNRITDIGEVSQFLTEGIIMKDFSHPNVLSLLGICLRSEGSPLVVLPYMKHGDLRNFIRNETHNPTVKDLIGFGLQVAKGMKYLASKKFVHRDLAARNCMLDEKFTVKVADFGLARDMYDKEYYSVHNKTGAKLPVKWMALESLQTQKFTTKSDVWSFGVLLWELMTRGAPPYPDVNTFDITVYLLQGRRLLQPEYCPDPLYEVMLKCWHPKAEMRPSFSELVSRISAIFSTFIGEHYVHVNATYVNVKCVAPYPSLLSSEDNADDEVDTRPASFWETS
Assay: cell-based or functional assay
Endpoint Label: Agonist Activity [maximum fold stimulation]

# Binder, Experimental Value
rows = [
    ("anti-c-Met monoclonal antibody 8.70.2 (antibody, V domains shown, Human IgG2 kappa; also called hybridoma 8.70.2 (LN 15885); PTA-5028) VH: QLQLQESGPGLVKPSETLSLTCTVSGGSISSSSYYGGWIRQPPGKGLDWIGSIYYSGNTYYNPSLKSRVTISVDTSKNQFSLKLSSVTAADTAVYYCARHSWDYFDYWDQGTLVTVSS VL: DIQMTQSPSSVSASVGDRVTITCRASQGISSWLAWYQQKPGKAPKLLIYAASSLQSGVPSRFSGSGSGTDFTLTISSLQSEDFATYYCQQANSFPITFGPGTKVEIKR", "2.5 fold stimulation (maximum)"),
    ("anti-c-Met monoclonal antibody 8.90.3 (antibody, V domains shown, Human IgG2 kappa) VH: EVQLVESGGGLVQPGGSLRLSCAASGFTFSRYSMNWVRQAPGKGLEWVSYISSRSSTIYYADSVKGRFTMSRDNAKNSLYMQMNSLRDEDTAVYYCGYGDYDYFDYWGQGTLVTVSS VL: DIQMTQSPSSVSASVGDRVIITCRASQGISSWLAWYQQKPGKAPKLLIYAASSLKSGVPSRFSGSGSGTDFTVTISSLQPEDFATYYCQQSNSLPWTFGQGTKVEIKR", "2.3 fold stimulation (maximum)"),
    ("anti-c-Met monoclonal antibody 13.3.2 (antibody, human IgG2, kappa, V domains shown, Human IgG2 kappa from XenoMouse hybridoma; The variable positions X2, X4, X6, X8 correspond to positions 42, 97, 14 (heavy) and 91 (light), where position one is the N-terminal amino acid; these numbers may not count on the entry with its leader; also called PTA-5026) VH: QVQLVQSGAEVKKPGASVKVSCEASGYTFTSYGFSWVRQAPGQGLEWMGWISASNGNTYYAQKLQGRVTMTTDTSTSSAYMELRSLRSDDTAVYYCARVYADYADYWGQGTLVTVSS VL: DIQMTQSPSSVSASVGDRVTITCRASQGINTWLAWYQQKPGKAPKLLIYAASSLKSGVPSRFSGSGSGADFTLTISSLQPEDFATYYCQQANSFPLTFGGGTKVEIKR", "2.7 fold stimulation (maximum)"),
    ("anti-c-Met monoclonal antibody 13.3.2L-A91T, H-E42K, S97T (antibody, human IgG2, kappa, V domains shown, positions 42, 97, 14 and 91 count from the N-terminal amino acid and may not count on the entry with its leader) VH: QVQLVQSGAEVKKPGASVKVSCKASGYTFTSYGFSWVRQAPGQGLEWMGWISASNGNTYYAQKLQGRVTMTTDTSTSTAYMELRSLRSDDTAVYYCARVYADYADYWGQGTLVTVSS VL: DIQMTQSPSSVSASVGDRVTITCRASQGINTWLAWYQQKPGKAPKLLIYAASSLKSGVPSRFSGSGSGTDFTLTISSLQPEDFATYYCQQANSFPLTFGGGTKVEIKR", "2.5 fold stimulation (maximum)"),
]

Given the binder anti-c-Met monoclonal antibody 9.1.2 (antibody, V domains shown, Human IgG2 kappa; also called hybridoma 9.1.2 (LN 15884); PTA-5027) VH: QVQLQESGPGLVKPSQTLSLTCTVSGGSISSGGYYWSWIRQHPGKGLEWIGYIYYSGSTYYNPSLKSRVTISVDTSKNQFSLKLSSVTAADTAVYYCARDGPLGYCSSTSCPVTGEYYYYGMDVWGQGTTVTVSS VL: EIVLTQSPGTLSLSPGERATLSCRASQSVSNNYLAWYQQKPGQAPRLLIFGASSRATGIPDRFSGSGSGTDFTLTISRLEPEDFAVYYCQQYDISPMYSFGQGTKLEMKR , what is its reported Agonist Activity [maximum fold stimulation]?
6.5 fold stimulation (maximum)

These measurements were taken from patent US20120321614A1.
